Entries and their measured inhibition follow.
- test system: Protein LANA1 (Human herpesvirus 8 type P (isolate GK18)) (UniProt Q9QR71)
- Sequence (Q9QR71 whole entry, looked up): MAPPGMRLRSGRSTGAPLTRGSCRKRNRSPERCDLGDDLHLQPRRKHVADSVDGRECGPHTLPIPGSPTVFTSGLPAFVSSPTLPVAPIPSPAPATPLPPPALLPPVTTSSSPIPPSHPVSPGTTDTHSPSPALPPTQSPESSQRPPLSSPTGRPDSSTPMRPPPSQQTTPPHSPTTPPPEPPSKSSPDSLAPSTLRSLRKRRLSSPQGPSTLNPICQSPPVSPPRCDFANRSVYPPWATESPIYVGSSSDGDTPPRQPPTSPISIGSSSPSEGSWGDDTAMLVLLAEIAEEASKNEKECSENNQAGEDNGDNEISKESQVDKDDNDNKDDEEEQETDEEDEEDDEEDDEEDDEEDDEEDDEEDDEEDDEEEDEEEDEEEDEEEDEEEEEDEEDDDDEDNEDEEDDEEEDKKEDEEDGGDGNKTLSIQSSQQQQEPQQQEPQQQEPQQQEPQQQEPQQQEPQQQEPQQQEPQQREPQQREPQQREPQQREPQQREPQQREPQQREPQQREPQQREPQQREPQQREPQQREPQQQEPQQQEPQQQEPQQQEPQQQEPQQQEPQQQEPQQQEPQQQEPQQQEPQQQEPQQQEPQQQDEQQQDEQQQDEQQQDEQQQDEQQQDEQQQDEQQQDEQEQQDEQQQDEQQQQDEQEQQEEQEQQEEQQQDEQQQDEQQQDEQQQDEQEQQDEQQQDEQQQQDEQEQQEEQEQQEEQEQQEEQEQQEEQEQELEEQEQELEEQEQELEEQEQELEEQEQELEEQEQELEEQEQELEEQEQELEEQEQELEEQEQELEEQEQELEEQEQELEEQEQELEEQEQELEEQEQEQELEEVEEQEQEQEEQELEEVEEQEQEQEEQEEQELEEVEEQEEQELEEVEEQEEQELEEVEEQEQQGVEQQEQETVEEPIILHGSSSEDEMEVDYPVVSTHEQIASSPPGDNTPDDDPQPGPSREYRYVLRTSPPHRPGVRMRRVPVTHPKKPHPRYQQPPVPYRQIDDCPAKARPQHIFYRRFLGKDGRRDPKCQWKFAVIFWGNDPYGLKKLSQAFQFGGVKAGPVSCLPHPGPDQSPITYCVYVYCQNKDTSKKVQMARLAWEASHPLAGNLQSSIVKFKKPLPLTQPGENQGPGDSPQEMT
- assay details: blockers of LANA interaction with H2A/H2B – biochemical, FP readout, HTS, primary screen (AID 2629)
- cond: cell-free LANA-H2A/H2B peptide, fluorescence polarization, active compounds read high, concentration not given here
Screen size: about 320,000 compounds; about 1,900 (0.59%) were called active. This excerpt belongs to a sample that is enriched for actives.
# value in %; strip the unit string

These recorded examples may help you get a feel for the data.
# molecule, readout value
records = [
    ("CCOC(=O)C(NS(=O)(=O)c1ccc(C)cc1)(C(F)(F)F)P(=O)(OCC(C)C)OCC(C)C (stereo not given)", -0.856),
    ("COc1ccc(C)cc1Nc1nc(C)nc2c1oc1ccccc12", 3.52),
    ("Cc1cccc(NS(=O)(=O)c2ccc(C)c(C(N)=O)c2)c1", 2.17),
]

Query block: Enter reported inhibition observed with Protein LANA1 (Human herpesvirus 8 type P (isolate GK18)) (UniProt Q9QR71) for COC(=O)c1cnc(Nc2cc(C)ccc2OC)c2ccccc12
Result block: -2.27

Query block: Form entry - test system: Protein LANA1 (Human herpesvirus 8 type P (isolate GK18)) (UniProt Q9QR71); read-out: inhibition; molecule: CCCCN(C(=O)c1ccc(S(=O)(=O)N2CCOCC2)cc1)C1CCS(=O)(=O)C1 (stereo not given)
Result block: 3.61

----------
- test system: Protein LANA1 (Human herpesvirus 8 type P (isolate GK18)) (UniProt Q9QR71)
- assay details: blockers of LANA interaction with H2A/H2B – biochemical, FP readout, HTS, primary screen (AID 2629)
- cond: cell-free LANA-H2A/H2B peptide, fluorescence polarization, active compounds read high, concentration not given here
Among all 320,000 compounds or so, about 1,900 (0.59%) were called active. The sample as a whole holds a higher share of actives than the screen did.
// values below are reported inhibition
Give your result in % as a bare value.

Before answering, review these 2 worked examples.
# given smiles, inhibition / %
measured = [
    ("CC1CCN(CCCn2c(SCC(=O)NC3CCCC3)nc3ccccc3c2=O)CC1", 2.87),
    ("COC(=O)c1ccc(CSc2nncn2C)cc1", 5.16),
]

Okay, now this molecule:
Query block: Fill in the recorded inhibition for this molecule, with Protein LANA1 (Human herpesvirus 8 type P (isolate GK18)) (UniProt Q9QR71) as test system: CCOC(=O)c1ccc(COC(=O)CCc2nc(-c3ccccc3)c(-c3ccccc3)o2)cc1
Result block: -6.88

----------
- test system: Protein LANA1 (Human herpesvirus 8 type P (isolate GK18)) (UniProt Q9QR71)
- assay details: blockers of LANA interaction with H2A/H2B – biochemical, FP readout, HTS, primary screen (AID 2629)
- cond: cell-free LANA-H2A/H2B peptide, fluorescence polarization, concentration not given here
About 1,900 (0.59%) of roughly 320,000 compounds were called active. Rule as the data show it: active = inhibition mostly above about 10% (no sharp cut-off); inactive = mostly below about 6.7%. What follows is part of a selection rich in actives, with near analogues and random picks from the rest.
Choose the fitting class; nothing outside active, inactive is accepted.

Solved entries (count: 2):
# compound, category label
measured = [
    ("O=C(Nc1cccc(-c2cscn2)c1)C1CCN(Cc2ccsc2)CC1", "inactive"),
    ("CCC(C)c1ccc(NC(=S)NCc2ccccn2)cc1 (configuration not stated)", "inactive"),
]

Now consider a different compound.
Query block: I'd appreciate the recorded outcome for CCc1cccc(NC(=O)CCCN2C(=O)C(c3ccccc3)Oc3cccnc32)c1 (configuration not stated) from this test.
Result block: inactive

This collection of values is drawn from PubChem BioAssay AID2629.
